Hello, the source for this data is paper PMC9792776, in case you need it.

experiment: Fraction unbound (fu) in human plasma; type: in vitro ADME; conditions: test concentration 400 ng/ml, read-out: fu (N=3)
OBSERVABLE: fraction unbound at 400 ng/ml
Lab note: record the figure alone, no unit after it.

Give its fraction unbound at 400 ng/ml value. Item: Cc1ccc(C(=O)Nc2ccc(CN3CCN(C)CC3)c(C(F)(F)F)c2)cc1C#Cc1cnc2[nH]ncc2c1 [olverembatinib, Olverembatinib]
0.0004

---

experiment: pKa; assay type: physicochemical; conditions: read-out: pKa 2
OBSERVABLE: pKa

Give its pKa value. Item: Cc1ccc(C(=O)Nc2ccc(CN3CCN(C)CC3)c(C(F)(F)F)c2)cc1C#Cc1cnc2[nH]ncc2c1
10.9

---

target: P-gp (Homo sapiens, UniProt P08183)
Sequence (P08183 whole entry): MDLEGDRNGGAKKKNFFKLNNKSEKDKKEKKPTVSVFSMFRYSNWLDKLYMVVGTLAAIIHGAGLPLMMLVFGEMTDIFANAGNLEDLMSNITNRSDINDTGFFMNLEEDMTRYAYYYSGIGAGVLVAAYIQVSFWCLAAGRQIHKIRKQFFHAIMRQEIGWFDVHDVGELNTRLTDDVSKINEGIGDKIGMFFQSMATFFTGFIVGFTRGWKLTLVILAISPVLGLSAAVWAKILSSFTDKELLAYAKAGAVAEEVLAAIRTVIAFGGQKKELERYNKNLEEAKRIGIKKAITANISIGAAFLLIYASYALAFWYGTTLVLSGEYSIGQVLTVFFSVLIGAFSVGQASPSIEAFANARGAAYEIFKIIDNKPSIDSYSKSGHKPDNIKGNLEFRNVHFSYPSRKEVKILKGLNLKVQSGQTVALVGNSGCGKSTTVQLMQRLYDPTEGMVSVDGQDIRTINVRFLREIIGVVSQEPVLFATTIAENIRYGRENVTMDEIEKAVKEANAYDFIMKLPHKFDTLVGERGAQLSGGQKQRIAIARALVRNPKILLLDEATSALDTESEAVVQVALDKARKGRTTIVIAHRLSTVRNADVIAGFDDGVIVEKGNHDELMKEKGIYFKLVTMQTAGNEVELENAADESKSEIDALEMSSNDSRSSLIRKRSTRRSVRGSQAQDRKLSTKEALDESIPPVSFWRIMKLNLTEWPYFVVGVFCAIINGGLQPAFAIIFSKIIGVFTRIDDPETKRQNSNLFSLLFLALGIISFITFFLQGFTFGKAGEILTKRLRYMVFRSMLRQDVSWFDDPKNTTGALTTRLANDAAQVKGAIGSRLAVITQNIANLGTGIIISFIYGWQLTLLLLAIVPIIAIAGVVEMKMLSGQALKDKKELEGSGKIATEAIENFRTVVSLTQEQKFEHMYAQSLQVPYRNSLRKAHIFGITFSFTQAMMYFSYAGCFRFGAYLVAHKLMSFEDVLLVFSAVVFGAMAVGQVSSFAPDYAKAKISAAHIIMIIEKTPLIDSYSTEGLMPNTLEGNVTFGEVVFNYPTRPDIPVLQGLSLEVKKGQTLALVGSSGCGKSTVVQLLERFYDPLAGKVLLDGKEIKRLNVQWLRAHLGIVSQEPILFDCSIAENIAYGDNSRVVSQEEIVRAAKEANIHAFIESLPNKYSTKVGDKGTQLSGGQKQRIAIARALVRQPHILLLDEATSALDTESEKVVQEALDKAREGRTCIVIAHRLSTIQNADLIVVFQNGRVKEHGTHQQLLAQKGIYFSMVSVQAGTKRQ
OBSERVABLE: Ki (nM)
I only need the number, in nM, no unit after it.

Please state recorded Ki (tested on P-gp (Homo sapiens, UniProt P08183)) of Cc1ccc(C(=O)Nc2ccc(CN3CCN(C)CC3)c(C(F)(F)F)c2)cc1C#Cc1cnc2[nH]ncc2c1
2230

---

system: CYP2C9; conditions: human
OBSERVABLE: EC50 (nM)
I only need the number, in nM, no unit after it.

Give its EC50 value. Item: Cc1ccc(C(=O)Nc2ccc(CN3CCN(C)CC3)c(C(F)(F)F)c2)cc1C#Cc1cnc2[nH]ncc2c1
323

---

tested on: CYP2B6; test: CYP2B6 mRNA induction in cultured human hepatocytes; assay type: cell-based; settings: human, cultured human hepatocytes, CYP2B6 mRNA, lot HUM182851; read-out: EC50
OBSERVABLE: pEC50
Please express pEC50 as -log10 of the molar concentration.

Give its pEC50 value. Item: Cc1ccc(C(=O)Nc2ccc(CN3CCN(C)CC3)c(C(F)(F)F)c2)cc1C#Cc1cnc2[nH]ncc2c1 [olverembatinib, Olverembatinib]
6.54

---

biological target: CYP2C9 (Homo sapiens, UniProt P11712)
Sequence (P11712 whole entry): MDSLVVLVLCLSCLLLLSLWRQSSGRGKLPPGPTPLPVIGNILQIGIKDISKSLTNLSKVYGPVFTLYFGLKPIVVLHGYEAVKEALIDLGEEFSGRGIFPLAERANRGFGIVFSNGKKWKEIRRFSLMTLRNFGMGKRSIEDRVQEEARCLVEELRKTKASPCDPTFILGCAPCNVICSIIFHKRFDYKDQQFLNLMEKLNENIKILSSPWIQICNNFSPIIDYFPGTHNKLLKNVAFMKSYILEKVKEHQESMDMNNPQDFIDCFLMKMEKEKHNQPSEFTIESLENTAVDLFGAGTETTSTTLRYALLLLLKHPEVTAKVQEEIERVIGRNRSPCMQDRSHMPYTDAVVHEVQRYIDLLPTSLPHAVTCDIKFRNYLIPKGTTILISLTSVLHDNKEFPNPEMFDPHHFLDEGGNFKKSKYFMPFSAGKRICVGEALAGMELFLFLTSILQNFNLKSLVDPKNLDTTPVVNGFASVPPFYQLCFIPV
OBSERVABLE: Ki

Please state recorded Ki (tested on CYP2C9 (Homo sapiens, UniProt P11712)) of Cc1ccc(C(=O)Nc2ccc(CN3CCN(C)CC3)c(C(F)(F)F)c2)cc1C#Cc1cnc2[nH]ncc2c1 [olverembatinib, Olverembatinib]
1.14 µM

---

assay: Human mass balance study with [14C]olverembatinib (NCT04126707); type: in vivo; conditions: male, human, plasma, oral; Chinese healthy volunteers, fasting, 26.85 mg SD
OBSERVABLE: Cmax (ng/mL)
I only need the number, in ng/mL, no unit after it.

Give its Cmax value. Item: Cc1ccc(C(=O)Nc2ccc(CN3CCN(C)CC3)c(C(F)(F)F)c2)cc1C#Cc1cnc2[nH]ncc2c1 [olverembatinib, Olverembatinib]
8.09

---

target: CYP3A4 (Homo sapiens); assay: Clinical DDI study with itraconazole and rifampicin in healthy American (White) subjects; settings: human, plasma, oral, Cmax Obs., coadministration with itraconazole, healthy White volunteers
Sequence (P08684 whole entry): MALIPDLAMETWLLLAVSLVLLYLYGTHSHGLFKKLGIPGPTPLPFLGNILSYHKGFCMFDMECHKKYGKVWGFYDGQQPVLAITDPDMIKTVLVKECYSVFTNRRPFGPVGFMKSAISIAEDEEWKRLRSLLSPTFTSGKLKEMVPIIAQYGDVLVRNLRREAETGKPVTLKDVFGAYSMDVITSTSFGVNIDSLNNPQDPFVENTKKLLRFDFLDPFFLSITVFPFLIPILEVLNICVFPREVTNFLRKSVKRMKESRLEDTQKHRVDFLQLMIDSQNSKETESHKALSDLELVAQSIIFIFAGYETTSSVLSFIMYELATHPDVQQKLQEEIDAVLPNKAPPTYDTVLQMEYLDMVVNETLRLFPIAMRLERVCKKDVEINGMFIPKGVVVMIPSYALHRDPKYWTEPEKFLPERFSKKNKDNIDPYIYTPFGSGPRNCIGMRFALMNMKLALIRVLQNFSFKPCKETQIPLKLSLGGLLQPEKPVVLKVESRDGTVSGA
OBSERVABLE: Cmax (ng/mL)
I only need the number, in ng/mL, no unit after it.

Please state recorded Cmax (tested on CYP3A4 (Homo sapiens)) of Cc1ccc(C(=O)Nc2ccc(CN3CCN(C)CC3)c(C(F)(F)F)c2)cc1C#Cc1cnc2[nH]ncc2c1
9.14

---

target: CYP3A4 (Homo sapiens); test: Clinical DDI study with itraconazole and rifampicin in healthy American (White) subjects; settings: human, plasma, oral, 40 mg, Cmax Obs., White healthy volunteers, fed, 40 mg SD, olverembatinib alone
OBSERVABLE: Cmax (ng/mL)
I only need the number, in ng/mL, no unit after it.

Please state recorded Cmax (tested on CYP3A4 (Homo sapiens)) of Cc1ccc(C(=O)Nc2ccc(CN3CCN(C)CC3)c(C(F)(F)F)c2)cc1C#Cc1cnc2[nH]ncc2c1 [olverembatinib, Olverembatinib]
12.7
